Sourced from patent US7138525B2

Experiment: Brain/cerebrospinal fluid transport test
Type: in vivo
Conditions: rat, cerebrospinal fluid; male SD rats, 2 hours after oral administration (10 mg/kg); read-out: concentration in the cerebrospinal fluid
parameter: concentration at 2 h (nM)

| compound | reported measurement |
| --- | --- |
| C[C@@H]1NC(c2ccc(=O)n(C(F)F)c2)=NC1(c1ccc(F)cc1)c1ccc(C(F)(F)F)nc1 (single isomer, unassigned) [Example 1-7] | 150 |

----------
Target sequence: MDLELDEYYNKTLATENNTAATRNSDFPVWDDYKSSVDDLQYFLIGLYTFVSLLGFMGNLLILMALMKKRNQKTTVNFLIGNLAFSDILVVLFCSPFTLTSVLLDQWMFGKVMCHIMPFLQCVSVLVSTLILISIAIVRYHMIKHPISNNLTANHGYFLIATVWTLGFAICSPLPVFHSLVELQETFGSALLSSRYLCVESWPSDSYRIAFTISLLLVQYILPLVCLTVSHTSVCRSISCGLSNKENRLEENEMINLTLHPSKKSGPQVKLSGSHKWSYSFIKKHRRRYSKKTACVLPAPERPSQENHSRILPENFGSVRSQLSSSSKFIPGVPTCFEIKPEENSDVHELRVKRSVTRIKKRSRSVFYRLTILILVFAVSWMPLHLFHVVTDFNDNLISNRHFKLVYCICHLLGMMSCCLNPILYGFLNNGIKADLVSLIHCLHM
pIC50: −log10 of the molar value.

| molecule | pIC50 |
| --- | --- |
| C[C@@H]1NC(c2ccc(=O)n(C(F)F)c2)=NC1(c1ccc(Cl)cc1)c1ccnc(F)c1 (single isomer, unassigned) [Example 1-21] | 8.57 |
| CCn1cc(C2=NC(c3ccc(F)cc3)(c3ccc(C(F)(F)F)nc3)[C@H](C)N2)cc(Cl)c1=O (single isomer, unassigned) [Example 1-11] | 8.64 |
| CCc1cc(C2=N[C@@](c3ccc(F)cc3)(c3ccc(F)nc3)[C@H](C)N2)cn(C(F)F)c1=O [Example 1-70] | 8.54 |
| CCn1cc(C2=NC(c3ccc(F)cc3)(c3ccc(C(F)F)nc3)[C@H](C)N2)cc(F)c1=O (single isomer, unassigned) [Example 1-45] | 8.55 |
| COn1cc(C2=N[C@](c3ccc(F)cc3)(c3ccc(C(F)(F)F)nc3)[C@H](C)N2)ccc1=O [Example 1-53] | 8.60 |
| CCn1cc(C2=NC(c3ccc(Cl)cc3)(c3ccnc(F)c3)[C@H](C)N2)ccc1=O (single isomer, unassigned) [Example 1-23] | 8.55 |
